# Survival listing for each entry below
# Tested Target: Multidrug resistance-associated protein 1 (Homo sapiens)
# Procedure Details: Inhibition of MRP1 in human 2008/MRP1 cells assessed as potentiation of doxorubicin-induced cytotoxicity by measuring cell survival at 2 uM after 5 days by MTS assay relative to control
# Assay type: cell-based
# Study Conditions: 120 h
Express it in %; write the number only.

INSERT INTO assay_data (smiles_data, numeric_readout) VALUES
  ('O=c1cc(-c2ccccc2)oc2cc(OCCN(Cc3ccccc3)Cc3cn(CCOCCOc4ccc(-c5oc6ccccc6c(=O)c5OCc5ccccc5)cc4)nn3)ccc12', 49),
  ('COc1cccc(COc2c(-c3ccc(OCCOCCn4cc(-c5cccc(-c6cn(CCOCCOc7ccc(-c8oc9ccccc9c(=O)c8OCc8cccc(OC)c8)cc7)nn6)c5)nn4)cc3)oc3ccccc3c2=O)c1', 82),
  ('O=C1c2ccccc2C(=O)N1CCc1cn(CCOCCOc2ccc3c(=O)cc(-c4ccccc4)oc3c2)nn1', 51),
  ('O=c1cc(-c2ccc(OCCCc3cn(CCOCCOc4ccc(-c5cc(=O)c6ccccc6o5)cc4)nn3)cc2)oc2ccccc12', 29),
  ('O=c1cc(-c2ccccc2)oc2cc(OCCn3cc(CN(Cc4cn(CCOc5ccc6occ(-c7ccccc7)c(=O)c6c5)nn4)Cc4cn(CCOc5ccc6occ(-c7ccccc7)c(=O)c6c5)nn4)nn3)ccc12', 87);

Now turn to the next molecule.
I have this molecule here, CCc1ccc(O)c(C(=O)/C=C/c2ccc(OCCCCc3cn(CCOc4cccc5c(=O)cc(-c6ccccc6)oc45)nn3)cc2)c1 , and I need its recorded Survival. 86

---

# viability at 120 h, 2 µM listing for each entry below
# Procedure Details: Cytotoxicity against human 2008/MRP1 cells assessed as cell survival at 2 uM after 5 days by MTS assay relative to control
# Type: cell-based
# Study Conditions: read-out: Survival
Express it in %; write the number only.

Illustrative cases are given below, each with its answer.
INSERT INTO results (smiles_data, numeric_readout) VALUES
  ('Cc1ccc2oc(-c3ccc(OCCCCc4cn(CCOCCOCCOc5ccc(-c6cc(=O)c7cc(F)ccc7o6)cc5)nn4)cc3)cc(=O)c2c1', 100),
  ('COc1cccc(COc2c(-c3ccc(OCCCCc4cn(CCOCCOc5ccc(-c6cc(=O)c7ccccc7o6)cc5)nn4)cc3)oc3ccccc3c2=O)c1', 63),
  ('Cc1ccc2oc(-c3ccc(OCCOCCOCCn4cc(CCCOc5ccc(-c6cc(=O)c7ccc(F)cc7o6)cc5)nn4)cc3)cc(=O)c2c1', 95),
  ('COCOc1cc(OCc2ccccc2)c2c(=O)cc(-c3ccc(OCCCc4cn(CCOCCOc5ccc(-c6cc(=O)c7ccccc7o6)cc5)nn4)cc3)oc2c1', 95),
  ('O=c1cc(-c2ccc(OCCOCCn3cc(COCCOc4ccc5c(=O)cc(-c6ccccc6)oc5c4)nn3)cc2)oc2ccccc12', 97);

I have this compound here, O=c1cc(-c2ccccc2)oc2cc(OCCOCCn3cc(CN(CCOc4ccc5c(=O)cc(-c6ccccc6)oc5c4)Cc4ccccc4)nn3)ccc12 , and I need its recorded viability at 120 h, 2 µM. 80

I have this compound here, Cc1ccc2oc(-c3ccc(OCCCCc4cn(CCOCCOCCOc5ccc6c(=O)cc(-c7ccccc7)oc6c5)nn4)cc3)cc(=O)c2c1 , and I need its recorded viability at 120 h, 2 µM. 89

I have this compound here, O=C1c2ccccc2C(=O)N1CCc1cn(CCOCCOCCOc2ccc(-c3oc4ccccc4c(=O)c3OCc3ccccc3)cc2)nn1 , and I need its recorded viability at 120 h, 2 µM. 16

I have this compound here, O=c1cc(-c2ccccc2)oc2cc(OCCN(Cc3ccccc3)Cc3cn(CCOCCOCCOc4ccc(-c5cc(=O)c6cc(F)ccc6o5)cc4)nn3)ccc12 , and I need its recorded viability at 120 h, 2 µM. 72

I have this compound here, O=c1cc(-c2ccc(OCCCc3cn(CCOCCOc4ccc5c(=O)cc(-c6ccccc6)oc5c4)nn3)cc2)oc2cc(F)ccc12 , and I need its recorded viability at 120 h, 2 µM. 93

I have this compound here, Cc1ccc2oc(-c3ccc(OCCCCc4cn(CCOCCOc5ccc(-c6cc(=O)c7cc(F)ccc7o6)cc5)nn4)cc3)cc(=O)c2c1 , and I need its recorded viability at 120 h, 2 µM. 99

---

# Tested Target: Multidrug resistance-associated protein 1 (Homo sapiens, UniProt P33527)
# Sequence (P33527 whole entry): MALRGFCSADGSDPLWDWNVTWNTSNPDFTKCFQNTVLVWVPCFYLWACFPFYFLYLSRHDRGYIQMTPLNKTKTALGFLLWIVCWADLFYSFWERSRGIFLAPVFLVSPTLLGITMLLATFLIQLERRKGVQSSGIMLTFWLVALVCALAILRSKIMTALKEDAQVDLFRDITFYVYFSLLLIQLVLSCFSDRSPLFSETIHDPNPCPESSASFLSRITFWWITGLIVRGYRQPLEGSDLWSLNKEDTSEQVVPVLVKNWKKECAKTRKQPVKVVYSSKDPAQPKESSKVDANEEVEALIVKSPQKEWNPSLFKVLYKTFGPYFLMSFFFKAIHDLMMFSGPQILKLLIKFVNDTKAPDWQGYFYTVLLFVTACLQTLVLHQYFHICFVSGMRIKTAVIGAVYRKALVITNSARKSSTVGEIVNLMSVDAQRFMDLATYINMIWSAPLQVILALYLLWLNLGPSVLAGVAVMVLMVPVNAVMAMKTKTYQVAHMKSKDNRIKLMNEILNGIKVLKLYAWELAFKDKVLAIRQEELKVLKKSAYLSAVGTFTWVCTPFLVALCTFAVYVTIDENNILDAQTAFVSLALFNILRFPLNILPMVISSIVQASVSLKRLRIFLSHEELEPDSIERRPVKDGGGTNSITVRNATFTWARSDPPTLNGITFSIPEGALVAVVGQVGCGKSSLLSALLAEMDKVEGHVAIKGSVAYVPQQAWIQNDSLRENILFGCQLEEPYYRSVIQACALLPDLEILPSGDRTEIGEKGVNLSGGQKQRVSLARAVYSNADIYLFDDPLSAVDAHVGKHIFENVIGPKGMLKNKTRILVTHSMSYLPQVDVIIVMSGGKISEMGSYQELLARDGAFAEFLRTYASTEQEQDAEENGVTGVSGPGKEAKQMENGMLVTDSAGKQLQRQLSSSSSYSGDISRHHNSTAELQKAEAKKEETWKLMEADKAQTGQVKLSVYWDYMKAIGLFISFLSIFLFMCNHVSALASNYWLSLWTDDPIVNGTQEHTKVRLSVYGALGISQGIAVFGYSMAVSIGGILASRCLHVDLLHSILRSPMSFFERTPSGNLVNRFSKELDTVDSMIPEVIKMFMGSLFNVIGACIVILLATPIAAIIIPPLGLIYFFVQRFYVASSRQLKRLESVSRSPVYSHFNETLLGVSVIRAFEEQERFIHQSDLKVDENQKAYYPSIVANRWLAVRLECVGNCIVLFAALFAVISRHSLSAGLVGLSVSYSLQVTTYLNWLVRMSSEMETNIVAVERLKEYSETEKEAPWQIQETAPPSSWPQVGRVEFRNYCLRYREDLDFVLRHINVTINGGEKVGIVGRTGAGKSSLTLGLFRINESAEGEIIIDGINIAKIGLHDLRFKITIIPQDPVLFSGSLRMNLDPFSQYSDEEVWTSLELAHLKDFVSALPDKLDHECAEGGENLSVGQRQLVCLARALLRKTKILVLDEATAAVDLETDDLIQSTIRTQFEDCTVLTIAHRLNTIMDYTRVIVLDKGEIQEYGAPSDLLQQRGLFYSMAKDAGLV
# Procedure Details: Inhibition of MRP1 in human 2008/MRP1 cells assessed as potentiation of doxorubicin-induced cytotoxicity by measuring cell survival at 1 uM after 5 days by MTS assay relative to control
# Assay type: cell-based
# Study Conditions: 120 h
# label = Criterion met if Survival >= 50% else Criterion not met

The following compounds have reported results that may help.
INSERT INTO assay_data (smiles_data, answer_label) VALUES
  ('O=C(/C=C/c1ccc(OCCCCc2cn(CCOCCOc3ccc(-c4cc(=O)c5ccccc5o4)cc3)nn2)cc1)c1ccccc1O', 'Criterion met'),
  ('O=c1cc(-c2ccccc2)oc2cc(OCCOCc3cn(CCOCCOCCOc4ccc(-c5oc6ccccc6c(=O)c5OCc5ccccc5)cc4)nn3)ccc12', 'Criterion not met'),
  ('Cc1ccc2oc(-c3ccc(OCCCCc4cn(CCOCCOc5ccc(-c6cc(=O)c7ccccc7o6)cc5)nn4)cc3)cc(=O)c2c1', 'Criterion not met'),
  ('O=c1cc(-c2ccccc2)oc2cc(OCCN(Cc3ccccc3)Cc3cn(CCOCCOc4ccc(-c5cc(=O)c6cc(F)ccc6o5)cc4)nn3)ccc12', 'Criterion not met'),
  ('COCOc1cc(OCc2ccccc2)c2c(=O)cc(-c3ccc(OCCCc4cn(CCOCCOc5ccc(-c6cc(=O)c7ccccc7o6)cc5)nn4)cc3)oc2c1', 'Criterion met');

Check this compound for Survival at or above 50%: O=c1cc(-c2ccccc2)oc2cc(OCCOCc3cn(CCOCCOc4ccc(-c5oc6ccccc6c(=O)c5OCc5ccccc5)cc4)nn3)ccc12 Criterion met

---

# Tested Target: Multidrug resistance-associated protein 1 (Homo sapiens)
# Procedure Details: Inhibition of MRP1 in human 2008/MRP1 cells assessed as potentiation of doxorubicin-induced cytotoxicity by measuring cell survival at 2 uM after 5 days by MTS assay relative to control
# Format: cell-based
# Study Conditions: 120 h
Survival less than 80% is Satisfied; Survival greater than or equal to 80% is Not satisfied.

The following molecules have reported results that may help.
INSERT INTO assay_data (smiles_data, answer_label) VALUES
  ('O=c1c(OCc2ccccc2)c(-c2ccc(OCCOCCn3cc(CNc4ccccc4)nn3)cc2)oc2ccccc12', 'Not satisfied'),
  ('Cc1ccc2oc(-c3ccc(OCCCCc4cn(CCOCCOc5ccc(-c6cc(=O)c7ccccc7o6)cc5)nn4)cc3)cc(=O)c2c1', 'Satisfied'),
  ('O=c1c(OCc2ccccc2)c(-c2cccc(OCCOCCn3cc(CNc4ccccc4)nn3)c2)oc2ccccc12', 'Not satisfied'),
  ('Cc1ccc(O)c(C(=O)/C=C/c2ccc(OCCCCc3cn(CCOCCOc4ccc(-c5oc6ccccc6c(=O)c5OCc5ccccc5)cc4)nn3)cc2)c1', 'Satisfied'),
  ('O=c1c(OCc2ccccc2)c(-c2cccc(OCCOCCn3cc(CN(Cc4cn(CCOCCOc5cccc(-c6oc7ccccc7c(=O)c6OCc6ccccc6)c5)nn4)Cc4cn(CCOCCOc5cccc(-c6oc7ccccc7c(=O)c6OCc6ccccc6)c5)nn4)nn3)c2)oc2ccccc12', 'Not satisfied');

In plain terms, does Cc1ccc2oc(-c3ccc(OCCOCCOCCn4cc(CCCCOc5ccc(C=O)cc5)nn4)cc3)cc(=O)c2c1 come in under 80% for Survival? Satisfied

In plain terms, does [N-]=[N+]=NCCOCCOCCOc1ccc2c(=O)cc(-c3ccccc3)oc2c1 come in under 80% for Survival? Not satisfied

In plain terms, does O=c1cc(-c2ccccc2)oc2cc(OCCN(Cc3ccccc3)Cc3cn(CCOCCOc4cccc(-c5oc6ccccc6c(=O)c5OCc5ccccc5)c4)nn3)ccc12 come in under 80% for Survival? Satisfied

In plain terms, does O=c1[nH]c(-c2ccc(OCCCc3cn(CCOCCOc4ccc(-c5oc6ccccc6c(=O)c5OCc5ccccc5)cc4)nn3)cc2)nc2ccccc12 come in under 80% for Survival? Satisfied

In plain terms, does O=C(/C=C/c1ccc(OCCCCc2cn(CCOCCOc3cccc(-c4oc5ccccc5c(=O)c4OCc4ccccc4)c3)nn2)cc1)c1ccccc1O come in under 80% for Survival? Not satisfied

---

# Tested Target: Multidrug resistance-associated protein 1 (Homo sapiens)
# Procedure Details: Inhibition of MRP1 in human 2008/MRP1 cells assessed as potentiation of doxorubicin-induced cytotoxicity by measuring cell survival at 2 uM after 5 days by MTS assay relative to control
# Format: cell-based
# Study Conditions: 120 h
# Survival listing for each entry below

I have this compound here, O=C(/C=C/c1ccc(OCCCCc2cn(CCOCCOc3ccc(-c4cc(=O)c5ccccc5o4)cc3)nn2)cc1)c1ccccc1O , and I need its recorded Survival. 39%

I have this compound here, Cc1ccc(O)c(C(=O)/C=C/c2ccc(OCCCCc3cn(CCOCCOc4ccc(-c5cc(=O)c6cc(F)ccc6o5)cc4)nn3)cc2)c1 , and I need its recorded Survival. 82%

I have this compound here, O=C(/C=C/c1ccc(OCCCCc2cn(CCOCCOCCOc3ccc(-c4oc5ccccc5c(=O)c4OCc4ccccc4)cc3)nn2)cc1)c1ccccc1O , and I need its recorded Survival. 61%

I have this compound here, O=c1cc(-c2ccccc2)oc2cc(OCCCc3cn(CCOCCOCCOc4ccc(-c5oc6ccccc6c(=O)c5OCc5ccccc5)cc4)nn3)ccc12 , and I need its recorded Survival. 63%
